- system_tested: SFRP-1 (Homo sapiens, UniProt Q8N474)
- Sequence (Q8N474 32-314): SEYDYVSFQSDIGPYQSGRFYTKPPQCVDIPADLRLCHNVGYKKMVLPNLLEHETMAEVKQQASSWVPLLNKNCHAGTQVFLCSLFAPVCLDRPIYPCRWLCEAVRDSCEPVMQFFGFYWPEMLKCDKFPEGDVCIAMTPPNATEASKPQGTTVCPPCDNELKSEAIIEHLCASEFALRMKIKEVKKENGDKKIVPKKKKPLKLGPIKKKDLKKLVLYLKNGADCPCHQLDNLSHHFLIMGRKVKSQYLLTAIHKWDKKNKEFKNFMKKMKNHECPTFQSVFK
- assay_protocol: Cell-based assay for in vitro measurement of SFRP-1/SARP2 antagonist activity (U2OS cells co-transfected with 16x TCF-tk-Luciferase reporter, Wnt and hSFRP-1);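 note: U2OS cells co-transfected with a TCF-tk luciferase reporter, a Wnt vector, hSFRP-1 or empty vector and CMV-βgal, luciferase luminescence read in cell lysates alongside βgal activity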
- condition_parameters: U2OS, read-out: Fold Induction with SFRP-1, Conc 15 μM; with SFRP-1; fold induction over SFRP-1 control, single dose
value_kind: fold induction at 15 µM

CCc1ccc(S(=O)(=O)c2ccccc2)cc1S(=O)(=O)NCCCN1CCCC1 [Example 232] ... 4.2

[in] Identify the reported fold induction at 15 µM for the following entry. CNc1ccc(S(=O)(=O)c2ccc(C)c(S(=O)(=O)NCCc3ccccn3)c2)cc1 [Example 356]
[out] 2.5

[in] Identify the reported fold induction at 15 µM for the following entry. CCOc1ccc(CCNS(=O)(=O)c2cc(S(=O)(=O)c3ccccc3)ccc2CC)cc1OC [Example 149]
[out] 3.1

[in] Identify the reported fold induction at 15 µM for the following entry. Cc1ccc(S(=O)(=O)c2ccccc2)cc1S(=O)(=O)NCC(C)(C)C [Example 396]
[out] 1.4

[in] Identify the reported fold induction at 15 µM for the following entry. Cc1ccc(S(=O)(=O)c2ccc(F)cc2)cc1S(=O)(=O)NCCc1ccccn1 [Example 162]
[out] 2.7

[in] Identify the reported fold induction at 15 µM for the following entry. Cc1ccc(S(=O)(=O)c2ccccc2)cc1S(=O)(=O)NC1CCc2ccccc21 (centres unmarked) [Example 415]
[out] 1.5

[in] Identify the reported fold induction at 15 µM for the following entry. CCc1ccc(S(=O)(=O)c2ccc(F)cc2)cc1S(=O)(=O)NCCCn1ccnc1 [Example 303]
[out] 2.7

[in] Identify the reported fold induction at 15 µM for the following entry. CCc1ccc(S(=O)(=O)c2ccccc2)cc1S(=O)(=O)NCCCOC [Example 227]
[out] 2.7

[in] Identify the reported fold induction at 15 µM for the following entry. COc1ccc(S(=O)(=O)c2ccccc2)cc1S(=O)(=O)NC1Cc2ccccc2C1 [Example 269]
[out] 1.4
